Answer each item with its documented inhibition at 1 µM.
- Assay Target: wild-type human cardiac sodium channel, hNav1.5 (late INa) (Homo sapiens, UniProt Q14524)
- Sequence (Q14524 whole entry): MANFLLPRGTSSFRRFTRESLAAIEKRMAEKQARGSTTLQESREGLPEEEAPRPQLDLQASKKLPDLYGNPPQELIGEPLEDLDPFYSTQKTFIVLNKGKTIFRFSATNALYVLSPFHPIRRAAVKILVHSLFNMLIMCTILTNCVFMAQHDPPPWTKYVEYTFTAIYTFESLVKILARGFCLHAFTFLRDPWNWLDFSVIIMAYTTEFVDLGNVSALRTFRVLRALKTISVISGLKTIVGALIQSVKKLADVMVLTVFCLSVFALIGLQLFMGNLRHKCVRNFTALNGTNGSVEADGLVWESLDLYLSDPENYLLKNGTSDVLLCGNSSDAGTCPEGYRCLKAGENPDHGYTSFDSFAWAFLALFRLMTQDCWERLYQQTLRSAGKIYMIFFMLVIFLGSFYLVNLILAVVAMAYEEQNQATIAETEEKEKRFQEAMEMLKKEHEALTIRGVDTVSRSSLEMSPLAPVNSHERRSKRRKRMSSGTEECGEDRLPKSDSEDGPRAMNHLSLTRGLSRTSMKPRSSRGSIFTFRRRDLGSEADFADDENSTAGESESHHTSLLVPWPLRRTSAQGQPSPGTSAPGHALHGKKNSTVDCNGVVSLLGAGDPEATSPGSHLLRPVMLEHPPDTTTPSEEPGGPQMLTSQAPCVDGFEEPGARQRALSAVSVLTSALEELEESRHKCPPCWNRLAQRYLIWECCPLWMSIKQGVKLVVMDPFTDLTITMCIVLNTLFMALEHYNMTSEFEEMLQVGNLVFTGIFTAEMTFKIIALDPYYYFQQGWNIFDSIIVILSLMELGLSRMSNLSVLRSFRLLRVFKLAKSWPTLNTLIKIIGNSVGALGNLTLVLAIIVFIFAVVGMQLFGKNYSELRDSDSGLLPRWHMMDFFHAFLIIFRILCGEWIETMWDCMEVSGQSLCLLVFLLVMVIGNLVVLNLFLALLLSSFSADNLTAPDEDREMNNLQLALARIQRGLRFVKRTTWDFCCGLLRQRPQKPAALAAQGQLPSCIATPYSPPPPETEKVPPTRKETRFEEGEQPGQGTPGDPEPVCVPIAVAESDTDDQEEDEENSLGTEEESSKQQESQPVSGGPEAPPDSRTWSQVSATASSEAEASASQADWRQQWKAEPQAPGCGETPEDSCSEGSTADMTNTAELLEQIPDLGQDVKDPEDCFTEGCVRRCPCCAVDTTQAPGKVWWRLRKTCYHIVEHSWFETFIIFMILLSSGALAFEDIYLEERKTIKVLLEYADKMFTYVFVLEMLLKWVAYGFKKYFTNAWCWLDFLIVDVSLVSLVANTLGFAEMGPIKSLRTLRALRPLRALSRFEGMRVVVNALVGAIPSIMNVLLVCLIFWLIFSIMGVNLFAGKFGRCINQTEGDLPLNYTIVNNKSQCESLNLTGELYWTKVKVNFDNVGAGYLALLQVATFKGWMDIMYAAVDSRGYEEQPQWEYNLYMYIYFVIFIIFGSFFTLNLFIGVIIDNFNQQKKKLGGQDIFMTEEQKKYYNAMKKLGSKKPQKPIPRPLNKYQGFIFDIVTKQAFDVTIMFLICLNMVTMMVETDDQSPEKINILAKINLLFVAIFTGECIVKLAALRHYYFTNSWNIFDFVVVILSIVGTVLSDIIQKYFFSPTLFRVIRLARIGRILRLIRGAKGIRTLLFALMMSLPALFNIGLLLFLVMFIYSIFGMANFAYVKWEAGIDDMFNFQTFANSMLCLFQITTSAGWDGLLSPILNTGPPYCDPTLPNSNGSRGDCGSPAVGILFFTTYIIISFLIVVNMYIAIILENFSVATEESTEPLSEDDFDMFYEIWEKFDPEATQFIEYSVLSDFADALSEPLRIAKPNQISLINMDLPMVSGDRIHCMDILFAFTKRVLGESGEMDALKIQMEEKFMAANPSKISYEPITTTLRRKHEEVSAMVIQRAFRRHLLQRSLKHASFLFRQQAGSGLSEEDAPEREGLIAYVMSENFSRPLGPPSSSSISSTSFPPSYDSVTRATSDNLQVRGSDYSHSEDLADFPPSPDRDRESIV
- Method Description: Late INa screening assay (QPatch whole cell patch clamp)
- Assay type: cell-based
- Assay Conditions: percent block of late INa, compound at 1 μM, 10 μM Tefluthrin, HEK293 hNav1.5; read-out: Late INa 1 μM
Answers are plain numbers, in %.

// solved cases for inhibition at 1 µM follow
>>> reported_result("O=C1c2cc(-c3ccc(OC(F)(F)F)cc3)ccc2SCN1Cc1ncccn1")
55
>>> reported_result("O=c1c2cc(-c3ccc(OC(F)(F)F)cc3)ccc2cnn1CCn1cccc1")
33
>>> reported_result("O=c1c2cc(-c3ccc(OC(F)(F)F)cc3)ccc2nnn1Cc1ncccn1")
60
>>> reported_result("O=c1c2cc(-c3ccc(C(F)(F)F)nc3)ccc2nnn1CCOc1ncccn1")
22

Continue with the molecule presented below.
Supply inhibition at 1 µM value. Item: O=c1c2cc(-c3ccc(OC(F)(F)F)cc3)ccc2nnn1C1CCN(c2ncccn2)CC1
16

---

- Method Description: Microsomal stability assay, dog
- Type: in vitro ADME
- Assay Conditions: metabolic stability, dog liver microsomes 0.5 mg/mL, substrate 3 uM
Observation Type: MS Dog THalf
State the value with its unit after it.

>>> reported_result("O=C1c2cc(-c3ccc(OC(F)(F)F)cc3)ccc2SCN1Cc1ccccn1 [Compound X-1]")
"107 min"
>>> reported_result("Cc1coc(Cn2nnc3ccc(-c4ccc(OC(F)(F)F)cc4)cc3c2=O)n1 [II-97]")
"63 min"
>>> reported_result("O=c1c2cc(-c3ccc(OC(F)(F)F)cc3)ccc2cnn1Cc1nccc(C2CC2)n1 [III-23]")
"209 min"

Can you give me MS Dog THalf for all of these, one by one?
1. O=C1c2cc(-c3ccc(OC(F)(F)F)cc3)ccc2CCN1Cc1ccccn1 [IX-2]
2. O=C1c2cc(-c3ccc(C(F)(F)F)cc3)ccc2SCN1Cc1ccccn1 [Compound X-3]

88 min
137 min

---

- Assay Target: wild-type human cardiac sodium channel, hNav1.5 (late INa) (Homo sapiens, UniProt Q14524)
- Method Description: Late INa screening assay (QPatch whole cell patch clamp)
- Assay type: cell-based
- Assay Conditions: percent block of late INa, compound at 1 μM, 10 μM Tefluthrin, HEK293 hNav1.5; read-out: Late INa 1 μM
Answer each item with its documented inhibition at 1 µM.
Numeric answer plus unit only.

Previously resolved entries follow.
>>> reported_result("O=c1c2cc(-c3ccc(OC(F)(F)F)cc3)ccc2nnn1Cn1nc2ccccc2n1")
"19%"
>>> reported_result("Cn1cnc(S(=O)(=O)N2CCc3ccc(-c4ccc(C(F)(F)F)cc4)cc3C2)c1")
"27%"
>>> reported_result("O=C(N1CCc2ccc(-c3ccc(C(F)(F)F)cc3)cc2C1)N1CC[C@@H](CO)C1")
"15%"
>>> reported_result("O=C(c1ncccn1)N1CCc2ccc(-c3ccc(OC(F)(F)F)cc3)cc2C1")
"44%"
>>> reported_result("O=c1c2cc(-c3ccc(OC(F)(F)F)cc3)ccc2nnn1CC1(CO)CC1")
"53%"
>>> reported_result("O=C(N1CCc2ccc(-c3ccc(C(F)(F)F)cc3)cc2C1)N1CC(F)(F)C1")
"17%"
>>> reported_result("O=C(NC1CCCC1)N1CCc2ccc(-c3ccc(C(F)(F)F)cc3)cc2C1")
"22%"
>>> reported_result("O=c1c2cc(-c3ccc(OC(F)(F)F)cc3)ccc2nnn1Cc1nc(Cc2ccccc2)no1")
"21%"

Fill in reported inhibition at 1 µM for this entry: O=C(NCc1ccccc1)N1CCc2ccc(-c3ccc(C(F)(F)F)cc3)cc2C1
27%

---

Exercise: for every item that follows, state its recorded log10 of MS Dog THalf.
- Method Description: Microsomal stability assay, dog
- Assay type: in vitro ADME
- Assay Conditions: metabolic stability, dog liver microsomes 0.5 mg/mL, substrate 3 uM
Reminder: these figures are log10 of reported MS Dog THalf, in min before transformation.

Completed entries (count: 8):
>>> reported_result("Cc1nonc1Cn1cnc2ccc(-c3ccc(OC(F)(F)F)cc3)cc2c1=O")
1.73
>>> reported_result("CC(C)(COc1ncccn1)Cn1nnc2ccc(-c3ccc(OC(F)(F)F)cc3)cc2c1=O")
1.99
>>> reported_result("O=c1c2cc(-c3cnc(N4CCCCC4)nc3)ccc2nnn1CCOc1ncccn1")
0.70
>>> reported_result("O=c1c2cc(-c3ccc(OC(F)(F)F)cc3)ccc2nnn1CCc1ccccn1")
1.36
>>> reported_result("Cc1cc(Cn2nnc3ccc(-c4ccc(OC(F)(F)F)cc4)cc3c2=O)on1")
2.07
>>> reported_result("Cc1cc(C)n(CC2(Cn3nnc4ccc(-c5ccc(OC(F)(F)F)cc5)cc4c3=O)CC2)n1")
0.85
>>> reported_result("O=C(Cc1ccccn1)N1CCc2ccc(-c3ccc(C(F)(F)F)cc3)cc2C1")
2.14
>>> reported_result("O=c1c2cc(-c3ccc(OC(F)(F)F)cc3)ccc2nnn1C1CCN(CC(F)(F)F)CC1")
1.89

# return log10 of MS Dog THalf for each item in the list
1. O=C1c2cc(-c3ccc(OC(F)(F)F)cc3)ccc2OCN1Cc1ccccn1
2. Cc1nc(Cn2nnc3ccc(-c4ccc(OC(F)(F)F)cc4)cc3c2=O)co1

[2.21, 1.79]

For the 5 molecules below, give their log10 of MS Dog THalf values.
1. O=c1c2cc(-c3ccc(OC(F)(F)F)cc3)ccc2nnn1CCn1cccn1
2. O=c1c2cc(-c3ccc(Oc4ccc(Cl)cc4)cc3)ccc2nnn1CCn1cccn1
3. CN(C(=O)N1CCc2ccc(-c3ccc(C(F)(F)F)cc3)cc2C1)c1ccccc1
4. Cc1noc(Cn2nnc3ccc(-c4ccc(Oc5ccc(Cl)cc5)cc4)cc3c2=O)n1
5. Cc1cc(C)n(CCn2ncc3ccc(-c4ccc(OC(F)(F)F)cc4)cc3c2=O)n1

[1.56, 2.00, 1.98, 1.49, 1.26]

Working through the 2 molecules below one at a time, give log10 of MS Dog THalf for each.
1. Cc1cnc(Cn2nnc3ccc(-c4ccc(OC(F)(F)F)cc4)cc3c2=O)o1
2. CC(c1nc(-c2ncccn2)no1)n1nnc2ccc(-c3ccc(OC(F)(F)F)cc3)cc2c1=O (stereo not drawn)

1: 1.91; 2: 2.81

Supply measured log10 of MS Dog THalf of O=C(Cn1nnc2ccc(-c3ccc(OC(F)(F)F)cc3)cc2c1=O)N1CCN(c2ncccn2)CC1 in your reply.
1.90

---

For each entry below, report its MS Dog THalf value.
- Method Description: Microsomal stability assay, dog
- Assay type: in vitro ADME
- Assay Conditions: metabolic stability, dog liver microsomes 0.5 mg/mL, substrate 3 uM

Completed entries (count: 3):
>>> reported_result("O=c1c2cc(-c3ccc(OC(F)(F)F)cc3)ccc2cnn1Cc1nccc(OCC2CC2)n1 [III-27]")
"83 min"
>>> reported_result("Cn1cnc(C(=O)N2CCc3ccc(-c4ccc(C(F)(F)F)cc4)cc3C2)c1 [IX-39]")
"256 min"
>>> reported_result("Cc1cc(Cn2nnc3ccc(-c4ccc(OC(F)(F)F)cc4)cc3c2=O)no1 [II-26]")
"67 min"

For every item below, please supply its MS Dog THalf.
1. O=C(c1ncccn1)N1CCc2ccc(-c3ccc(C(F)(F)F)cc3)cc2C1 [IX-7]
2. O=c1c2cc(-c3ccc(OC(F)(F)F)cc3)ccc2nnn1CC1(CO)CC1 [II-75]
3. Cc1noc(Cn2nnc3ccc(-c4ccc(C5CC5)cc4)cc3c2=O)n1 [II-73]
4. Cc1nccn1CC1(Cn2nnc3ccc(-c4ccc(OC(F)(F)F)cc4)cc3c2=O)CC1 [II-34]
5. CC1Oc2ccc(-c3ccc(OC(F)(F)F)cc3)cc2C(=O)N1Cc1ncccn1 (stereo not drawn) [VIII-7]
6. O=C(N1CCc2ccc(-c3ccc(C(F)(F)F)cc3)cc2C1)N1CC(O)C1 [IX-108]
7. N#Cc1ccnc(OCCn2nnc3ccc(-c4ccc(OC(F)(F)F)cc4)cc3c2=O)n1 [II-36]
8. COc1ncc(-c2cnn(CCn3ncc4ccc(-c5ccc(OC(F)(F)F)cc5)cc4c3=O)c2)cn1 [III-34]

> 395 min
85 min
5 min
2 min
392 min
370 min
124 min
46 min

Take each entry in turn and give its MS Dog THalf.
1. COc1cc(OC)nc(Cn2nnc3ccc(-c4ccc(OC(F)(F)F)cc4)cc3c2=O)n1 [II-44]
2. O=c1c2cc(C#Cc3ccc(OC(F)(F)F)cc3)ccc2nnn1CCOc1ncccn1 [VII-1]
3. O=c1c2cc(-c3ccc(OC(F)(F)F)cc3)ccc2nnn1Cc1ncc(Cl)cn1 [II-4]

1. 283 min
2. 114 min
3. 61 min

Look at each compound and report its MS Dog THalf.
1. O=C(c1cccnn1)N1CCc2ccc(-c3ccc(C(F)(F)F)cc3)cc2C1 [IX-17]
2. O=C1c2cc(-c3ccc(OC(F)(F)F)cc3)ccc2CCN1Cc1ncccn1 [IX-1]
3. O=C1c2cc(-c3ccc(C(F)(F)F)cc3)ccc2SCN1Cc1ccccc1Cl [Compound X-5]

1: > 395 min; 2: 157 min; 3: 55 min

Your task in this section: give MS Dog THalf for each listed record.
1. O=c1c2cc(-c3ccc(OC(F)(F)F)cc3)ccc2nnn1CCOc1ncccn1 [II-32]
2. O=c1c2cc(-c3ccc(OC(F)(F)F)cc3)ccc2nnn1CCn1ccc(C(F)(F)F)n1 [II-52]
3. O=c1c2cc(-c3ccc(OC(F)(F)F)cc3)ccc2nnn1Cc1cc(-c2ccccn2)on1 [II-47]
4. O=c1c2cc(-c3ccc(OC(F)(F)F)cc3)ccc2nnn1CCc1ccncn1 [II-17]
5. O=c1c2cc(-c3ccc(OC(F)(F)F)cc3)ccc2nnn1CCOc1nccc(-c2noc(C3CC3)n2)n1 [II-60]
6. CC(Cn1ncc2ccc(-c3ccc(OC(F)(F)F)cc3)cc2c1=O)n1cccn1 (stereo not drawn) [III-38]
7. O=c1c2cc(-c3ccc(OC(F)(F)F)cc3)ccc2cnn1Cc1cccnc1Br [III-14]
8. O=c1c2cc(-c3ccc(OC(F)(F)F)cc3)ccc2nnn1Cc1ncccn1 [II-24]

36 min
76 min
24 min
50 min
356 min
31 min
77 min
219 min

Quick request: MS Dog THalf for each listed item, please.
1. O=c1c2cc(-c3ccc(OC(F)(F)F)cc3)ccc2nnn1Cc1coc(C2CCC2)n1 [II-98]
2. O=c1c2cc(-c3ccc(OC(F)(F)F)cc3)ccc2nnn1C1CCNCC1 [II-38]

1. 34 min
2. 68 min

# map each compound to its MS Dog THalf
1. O=C(c1ncccn1)N1CCc2ccc(-c3ccc(OC(F)(F)F)cc3)cc2C1 [IX-11]
2. O=c1c2cc(-c3ccc(OC(F)(F)F)cc3)ccc2nnn1Cc1noc(-c2ccccn2)n1 [II-54]
3. O=C(NCc1ccco1)N1CCc2ccc(-c3ccc(C(F)(F)F)cc3)cc2C1 [IX-48]
4. O=c1c2cc(-c3ccc(OC(F)(F)F)cc3)ccc2cnn1CCOc1nccc(C2CC2)n1 [III-29]
5. Cc1noc(Cn2nnc3ccc(-c4ccc(OC(F)(F)F)cc4)cc3c2=O)n1 [II-3]

332 min
28 min
149 min
18 min
303 min

I would be grateful if you could provide MS Dog THalf for each of the following entries.
1. Cc1cccc(CCn2ncc3ccc(-c4ccc(OC(F)(F)F)cc4)cc3c2=O)n1 [III-18]
2. O=c1c2cc(-c3ccc(OC(F)(F)F)cc3)ccc2cnn1CCOc1cnccn1 [III-39]

23 min
14 min

Hey, quick one: what's MS Dog THalf for each of these?
1. O=c1c2cc(-c3ccc(OC(F)(F)F)cc3)ccc2cnn1CCn1cccc1 [III-10]
2. Cc1nc(Cn2nnc3ccc(-c4ccc(OC(F)(F)F)cc4)cc3c2=O)no1 [II-6]

1: 18 min; 2: 123 min
